# Measured target: recombinant human liver glycogen phosphorylase (Homo sapiens, UniProt P06737)
# Construct: made in house; host or cells: Sf9 insect cells (crude homogenate, diluted, used as the enzyme solution)
# Assay info: Measuring liver glycogen phosphorylase activity (forward reaction system, NADPH absorbance at 340 nm)
# Assay type: biochemical
# Conditions used: figure in brackets (100); read-out: IC50: % value given with (100)
Measurement type: inhibition at 0.1 µM (%)
# output: bare number, implied unit %

# lookup: inhibition at 0.1 µM of COC(=S)ON=C(N)c1ccc(N(C)C(=O)c2cc(NC(=O)c3cc(F)c(F)cc3Cl)[nH]n2)cc1 [Example 6-14]
20.1

Need inhibition at 0.1 µM, item CS(=O)(=O)Nc1cc(F)c(F)cc1C(=O)Nc1cc(C(=O)NCc2cccnc2)n[nH]1 [Example 7-12]
8

Which inhibition at 0.1 µM value is on record for O=C(NCc1cccnc1)c1cc(NC(=O)c2sc(Cl)c(Cl)c2Cl)[nH]n1 [Example 7-14] ?
4.6

Item CCOC1(C)Nc2ccccc2CN1C(=O)c1cc(NC(=O)c2cc(F)c(F)cc2Cl)[nH]n1 (stereo not shown) [Example 6-47] has what recorded inhibition at 0.1 µM?
41.1

----------
# Tested on: db/db mice
# Assay info: Measuring blood plasma glucose concentration in db/db mice (hypoglycemic effect)
# Type: in vivo
# Set-up: key: ++: compounds exhibiting statistically significant hypoglycemic effect at a dose of 10 mg/kg or less; +: compounds exhibiting not significant but obvious hypoglycemic effect at a dose of 10 mg/kg
# Conditions used: db/db mice fasted 4 h, oral administration, plasma glucose 1 and 3 hours after administration, dose 10 mg/kg or less, Dunnett test vs solvent; 10 mg/kg
# Method: 2. Exemplary Test (2) Method for Measuring Blood Plasma Glucose Concentration Using db/db mice representing an obesity type of diabetic model were used to examine the effect of compound (1) of the present invention on glucose concentrations in plasma. Plasma glucose concentrations of the db/db mice (9-18 weeks old) were measured, and the mice were divided into groups each of 5 or 8 mice such that there would be no difference in the average value of plasma glucose concentrations. […]
Measurement type: vivo (hypoglycemic effect in db/db mice)

These solved cases illustrate the format of a correct answer.
CN(C)c1ccc(CNC(=O)c2cc(NC(=O)c3cc(F)c(F)cc3Cl)[nH]n2)cn1 [Example 5-27]	++
CN(C)c1ccc(CNC(=O)c2cc(NC(=O)c3cc(F)c(F)cc3Cl)[nH]n2)cn1 [Example 1-129]	+
COc1ccc(CNC(=O)c2cc(NC(=O)c3cc(F)c(F)cc3Cl)[nH]n2)cn1 [Example 5-16]	+
COc1ccc(CNC(=O)c2cc(NC(=O)c3cc(F)c(F)cc3Cl)[nH]n2)cn1 [Example 1-12]	++

For the compound COc1ccc(CNC(=O)c2cc(NC(=O)c3cc(F)c(F)cc3Cl)[nH]n2)cn1 [Example 5-1] , what vivo (hypoglycemic effect in db/db mice) is on record?
+

----------
# Measured target: recombinant human liver glycogen phosphorylase (Homo sapiens, UniProt P06737)
# Construct: made in house; host or cells: Sf9 insect cells (crude homogenate, diluted, used as the enzyme solution)
# Sequence (P06737 1-847): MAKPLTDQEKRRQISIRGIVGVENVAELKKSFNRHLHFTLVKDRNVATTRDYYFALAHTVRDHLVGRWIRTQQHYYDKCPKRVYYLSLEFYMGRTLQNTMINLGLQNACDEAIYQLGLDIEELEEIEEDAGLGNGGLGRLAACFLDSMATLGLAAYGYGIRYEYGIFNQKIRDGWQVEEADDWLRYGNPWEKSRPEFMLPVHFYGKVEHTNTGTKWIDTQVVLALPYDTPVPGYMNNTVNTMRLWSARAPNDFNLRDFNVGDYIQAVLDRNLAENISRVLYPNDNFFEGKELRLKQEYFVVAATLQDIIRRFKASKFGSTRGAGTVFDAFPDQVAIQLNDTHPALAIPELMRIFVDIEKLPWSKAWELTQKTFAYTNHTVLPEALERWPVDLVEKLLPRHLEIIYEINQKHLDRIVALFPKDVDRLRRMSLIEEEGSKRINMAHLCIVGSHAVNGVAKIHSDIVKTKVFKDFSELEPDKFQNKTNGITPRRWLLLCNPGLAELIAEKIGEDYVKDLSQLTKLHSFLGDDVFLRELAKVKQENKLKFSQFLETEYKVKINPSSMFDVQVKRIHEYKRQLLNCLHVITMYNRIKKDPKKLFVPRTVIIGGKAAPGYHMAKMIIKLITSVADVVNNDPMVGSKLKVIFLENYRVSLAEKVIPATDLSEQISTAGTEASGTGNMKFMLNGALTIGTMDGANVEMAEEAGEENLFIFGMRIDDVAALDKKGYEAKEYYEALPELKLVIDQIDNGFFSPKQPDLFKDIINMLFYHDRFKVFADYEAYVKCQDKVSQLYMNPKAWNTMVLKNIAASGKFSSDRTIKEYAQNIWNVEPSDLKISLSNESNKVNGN
# Assay info: Measuring liver glycogen phosphorylase activity (forward reaction system, NADPH absorbance at 340 nm)
# Format: biochemical
# Conditions used: compound concentration 100 nmol (in parentheses); read-out: inhibition rate (%) at a certain concentration
Measurement type: inhibition at 0.1 µM (%)
Lab book: enter the figure in %, no units written.

Illustrative cases are given below, each with its answer.
O=C(N[C@H]1c2ccccc2C[C@H]1O)c1cc(NC(=O)c2cc(F)c(F)cc2Cl)[nH]n1	5.5
CCOc1cc(C(C)(C)C(=O)O)cnc1NC(=O)c1cc(NC(=O)c2cc(F)c(F)cc2Cl)[nH]n1	13.8
COCCN(C(=O)c1cc(NC(=O)c2cc(F)c(F)cc2Cl)[nH]n1)c1ccc(C(=O)OC)cc1	1.2

Suppose we examine the compound CCCCN(C(=O)c1cc(NC(=O)c2cc(F)c(F)cc2Cl)[nH]n1)c1ccc(CC(=O)OCC)cc1 ; what inhibition at 0.1 µM value has been reported?
5.9

Tell me the measured inhibition at 0.1 µM of O=C(NCc1ccccc1)c1cc(NC(=O)c2ccncc2Cl)[nH]n1 , please.
5.7

For O=C(NCCc1cccnc1)c1cc(NC(=O)c2cc(F)c(F)cc2Cl)[nH]n1 , what is its reported inhibition at 0.1 µM?
30.8
